Data origin: the supplement of paper PMC6555819

Test system: RARb:RXRa (NR concentration 270 nM, RXRa partner concentration 90 nM)
protocol.description: PBM binding z-score (relative to random genomic background probes); higher = stronger binding; sequences stand for … in GC…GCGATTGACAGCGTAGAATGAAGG
observable: PBM binding z-score
The answer should be written as a number, with no unit following it.

Examples from the recorded data:
{"residue.string": "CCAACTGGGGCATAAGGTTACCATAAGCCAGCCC", "endpoint.result": 1.6}
{"residue.string": "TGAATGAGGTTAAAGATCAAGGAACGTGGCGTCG", "endpoint.result": 2.11}
{"residue.string": "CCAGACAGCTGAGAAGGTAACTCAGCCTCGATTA", "endpoint.result": -1.71}
{"residue.string": "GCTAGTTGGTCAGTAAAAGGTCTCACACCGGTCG", "endpoint.result": 1.19}
{"residue.string": "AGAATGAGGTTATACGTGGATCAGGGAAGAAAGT", "endpoint.result": 1.55}

Asked: # PBM binding z-score lookup, item `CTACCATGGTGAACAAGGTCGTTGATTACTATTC`
Given back: 0.627

Asked: Item `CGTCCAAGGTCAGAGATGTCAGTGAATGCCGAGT` has what recorded PBM binding z-score?
Given back: 4.54

Asked: What value of measured PBM binding z-score is listed for `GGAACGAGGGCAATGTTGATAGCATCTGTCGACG` ?
Given back: 2.13

Asked: What value of PBM binding z-score has been reported for the following sequence? `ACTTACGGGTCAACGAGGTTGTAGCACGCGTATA`
Given back: 4.04

Asked: Reported PBM binding z-score, sequence `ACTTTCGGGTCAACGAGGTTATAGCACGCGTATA` : ____
Given back: 4.29

Asked: GET /values?readout=PBM binding z-score&item= `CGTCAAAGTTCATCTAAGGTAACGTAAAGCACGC`
Given back: 4.78

Asked: Suppose we examine the sequence `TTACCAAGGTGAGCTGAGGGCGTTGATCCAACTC` ; what PBM binding z-score value has been reported?
Given back: 1.1

Asked: Record request: PBM binding z-score value, item `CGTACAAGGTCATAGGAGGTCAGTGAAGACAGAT`
Given back: 5.44

###

Tested on: PPARg:RXRa 270nM:90nM, anti-RXR (NR concentration 270 nM, RXRa partner concentration 90 nM)
protocol.description: PBM binding z-score (relative to random genomic background probes); higher = stronger binding; sequences stand for … in GC…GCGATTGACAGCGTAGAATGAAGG
Classification scheme (PBM binding z-score): low range = under 1, mid range = from 1 up to 5, high range = 5 and over

{"residue.string": "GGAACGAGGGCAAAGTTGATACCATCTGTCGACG", "answer.label": "high range"}
{"residue.string": "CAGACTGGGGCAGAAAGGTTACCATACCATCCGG", "answer.label": "mid range"}
{"residue.string": "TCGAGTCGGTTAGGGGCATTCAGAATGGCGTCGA", "answer.label": "low range"}
{"residue.string": "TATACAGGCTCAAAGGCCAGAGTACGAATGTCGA", "answer.label": "mid range"}
{"residue.string": "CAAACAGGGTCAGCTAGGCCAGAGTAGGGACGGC", "answer.label": "mid range"}
{"residue.string": "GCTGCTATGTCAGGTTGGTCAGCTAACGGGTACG", "answer.label": "low range"}
{"residue.string": "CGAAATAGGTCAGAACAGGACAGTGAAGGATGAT", "answer.label": "mid range"}
{"residue.string": "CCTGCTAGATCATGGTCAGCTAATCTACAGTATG", "answer.label": "low range"}

Asked: Hello team, could you let me know which band the following sequence falls into: `CAAACTAGGTCACCGGAAGGTCAAAGGCCGCATG`
Given back: high range

Asked: Please indicate the class for `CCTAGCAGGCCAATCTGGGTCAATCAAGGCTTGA` based on its PBM binding z-score.
Given back: mid range
